Tested on: IFNγ-induced NO production in RAW264.7 macrophages
Assay: Suppression of IFNγ-induced NO production (Griess reagent)
Format: cell-based, mouse
Settings: Mus musculus; RAW264.7, 20 ng/ml IFNγ 24 h, 2 h pre-treatment
Protocol: FIGS. 1-8 and 32-34. Inhibition of NO Production. RAW264.7 macrophages were pre-treated with DMSO or drugs at various concentrations (nM) for 2 hours, then treated with 20 ng/ml IFNγ for 24 hours. NO concentration in media was determined using a Griess reagent system; cell viability was determined using WST-1 reagent. Nitric Oxide production and cell viability. […] NO concentration in media was determined using the Griess reagent system (Promega). Cell viability was determined using WST-1 reagent (Roche).
pIC50: −log10 of the molar value.
Quick reference: pIC50 of the listed items.

INSERT INTO measurements (compound, result) VALUES
  ('CC1(C)CC[C@]2(C(=O)O)CC[C@]3(C)[C@H](C(=O)CC4[C@@]5(C)C=C(C#N)C(=O)C(C)(C)[C@@H]5CC[C@]43C)[C@@H]2C1 (some centres unmarked)', '~7.12');

Next item in the queue.
`CC1(C)CC[C@]2(C(=O)OCc3ccccc3)CC[C@]3(C)[C@H](C(=O)C[C@@H]4[C@@]5(C)C=C(C#N)C(=O)C(C)(C)[C@@H]5CC[C@]43C)[C@@H]2C1` has a reported pIC50 of ~7.40

---

test system: IFNγ-induced NO production in RAW264.7 macrophages; assay: Suppression of IFNγ-induced NO production (Griess reagent); format: cell-based, mouse; details: Mus musculus; RAW264.7, 20 ng/ml IFNγ 24 h, 2 h pre-treatment
Known IC50 of a selection of compounds

Below: 3 compounds and their reported IC50.
INSERT INTO assay_data (compound, result) VALUES
  ('CN(C)C(=O)[C@]12CCC(C)(C)C[C@H]1[C@H]1C(=O)C[C@@H]3[C@@]4(C)C=C(C#N)C(=O)C(C)(C)[C@@H]4CC[C@@]3(C)[C@]1(C)CC2', '~50 nM'),
  ('CC1(C)CC[C@]2(C(=O)NCC(F)(F)F)CC[C@]3(C)[C@H](C(=O)C[C@@H]4[C@@]5(C)C=C(C#N)C(=O)C(C)(C)[C@@H]5CC[C@]43C)[C@@H]2C1', '~45 nM'),
  ('COC(=O)[C@]12CCC(C)(C)C[C@H]1[C@H]1[C@@H](O)C[C@@H]3[C@@]4(C)C=C(C#N)C(=O)C(C)(C)[C@@H]4CC[C@@]3(C)[C@]1(C)CC2', '~150 nM');

Data point: COC(=O)[C@]12CCC(C)(C)C[C@H]1C1OC(O)C[C@@H]3[C@@]4(C)C=C(C#N)C(=O)C(C)(C)[C@@H]4CC[C@@]3(C)[C@]1(C)CC2 (stereo partly shown) ; IC50 = > 200 nM

---

assay: CNS and lung tissue concentrations after oral dosing in rats; type: in vivo; conditions: both sexes, Sprague Dawley, rat, brain (CNS tissue); SD rats, oral gavage, 1 mg/kg/day, day 15, 3 h post-dose; read-out: Mean 404-02 CNS Tissue Concentration (nM) ± SEM
readout-label: concentration at 3 h (nM)
# output: bare number, implied unit nM

The compound CC1(C)CC[C@]2(C(=O)NCC(F)(F)F)CC[C@]3(C)[C@H](C(=O)C[C@@H]4[C@@]5(C)C=C(C#N)C(=O)C(C)(C)[C@@H]5CC[C@]43C)[C@@H]2C1 [Compound 63102] showed concentration at 3 h equal to 51

---

system: γ-glutamylcysteine synthetase (γ-GCS); experiment: Nrf2 target gene induction, γ-GCS mRNA (qPCR); format: cell-based, human; settings: MDA-MB-435 cells, 250 nM; fold induction above DMSO control
readout-label: γ-GCS induction (fold)
Give the value, in units of fold, as a plain number.

Worked set:
INSERT INTO assay_data (compound, readout_label, readout_number) VALUES
  ('CC1(C)CC[C@]2(C(=O)NCC(F)(F)F)CC[C@]3(C)[C@H](C(=O)C[C@@H]4[C@@]5(C)C=C(C#N)C(=O)C(C)(C)[C@@H]5CC[C@]43C)[C@@H]2C1 [Compound 63102]', 'γ-GCS induction', 4.5),
  ('CC1(C)CC[C@]2(C(N)=O)CC[C@]3(C)[C@H](C(=O)CC4[C@@]5(C)C=C(C#N)C(=O)C(C)(C)[C@@H]5CC[C@]43C)[C@@H]2C1 (stereo partly drawn) [Compound 63205]', 'γ-GCS induction', 3.5),
  ('CC1(C)CC[C@]23CC[C@@]4(C)[C@]5(C)CC[C@H]6C(C)(C)C(=O)C(C#N)=C[C@]6(C)[C@H]5CC(=O)[C@@]4([C@@H]2C1)N(CC(F)(F)F)C3=O [Compound 63237]', 'γ-GCS induction', 6.4),
  ('COC(=O)[C@]12CCC(C)(C)C[C@H]1[C@H]1[C@H](O)C[C@@H]3[C@@]4(C)C=C(C#N)C(=O)C(C)(C)[C@@H]4CC[C@@]3(C)[C@]1(C)CC2 [Compound 63207]', 'γ-GCS induction', 3.1),
  ('COC(=O)[C@]12CCC(C)(C)C[C@H]1[C@H]1C(=O)CC3[C@@]4(C)C=C(C#N)C(=O)C(C)(C)[C@@H]4CC[C@@]3(C)[C@]1(C)CC2 (stereo partly drawn) [Compound 63101]', 'γ-GCS induction', 5);

// next entry
Form field γ-GCS induction for item CC1(C)CC[C@]2(C=O)CC[C@]3(C)[C@H](C(=O)CC4[C@@]5(C)C=C(C#N)C(=O)C(C)(C)[C@@H]5CC[C@]43C)[C@@H]2C1 (stereo partly drawn) [Compound 63206] on γ-glutamylcysteine synthetase (γ-GCS): 4.5

---

test: CNS and lung tissue concentrations after oral dosing in rats; type: in vivo; conditions: both sexes, Sprague Dawley, rat, lung; SD rats, oral gavage, 150 mg/kg/day, day 15, 3 h post-dose; read-out: Mean dh404 Lung Tissue Content (ng/g = ng/mL) ± SEM
readout-label: concentration at 3 h
Write the quantity with the unit trailing the number.

Documented concentration at 3 h of CC1(C)CC[C@]2(C(=O)NCC(F)(F)F)CC[C@]3(C)[C@H](C(=O)C[C@@H]4[C@@]5(C)C=C(C#N)C(=O)C(C)(C)[C@@H]5CC[C@]43C)[C@@H]2C1 [Compound 63102] : 9720 ng/g

---

experiment: CNS and lung tissue concentrations after oral dosing in rats; assay type: in vivo; conditions: both sexes, Sprague Dawley, rat, lung; SD rats, oral gavage, 10 mg/kg/day, day 15, 3 h post-dose; read-out: Mean dh404 Lung Tissue Content (ng/g = ng/mL) ± SEM
readout-label: concentration at 3 h (ng/g)
// return numeric value only (unit: ng/g, not printed)

Lab book: concentration at 3 h of CC1(C)CC[C@]2(C(=O)NCC(F)(F)F)CC[C@]3(C)[C@H](C(=O)C[C@@H]4[C@@]5(C)C=C(C#N)C(=O)C(C)(C)[C@@H]5CC[C@]43C)[C@@H]2C1 [Compound 63102] noted as 4030

---

assay: CNS and lung tissue concentrations after oral dosing in rats; type: in vivo; details: both sexes, Sprague Dawley, rat, brain (CNS tissue); SD rats, oral gavage, 150 mg/kg/day, day 15, 3 h post-dose; read-out: Mean 404-02 CNS Tissue Concentration (nM) ± SEM
readout-label: concentration at 3 h (nM)
Give the number; nM is assumed, so skip it.

Looking up CC1(C)CC[C@]2(C(=O)NCC(F)(F)F)CC[C@]3(C)[C@H](C(=O)C[C@@H]4[C@@]5(C)C=C(C#N)C(=O)C(C)(C)[C@@H]5CC[C@]43C)[C@@H]2C1 [Compound 63102] , I found its concentration at 3 h recorded as 1110

---

experiment: CNS and lung tissue concentrations after oral dosing in monkeys; type: in vivo; conditions: both sexes, lung; cynomolgus monkey, oral gavage, 25 mg/kg/day, day 15; read-out: Mean 404-02 Lung Tissue Concentration (nM) ± SEM
readout-label: concentration at 3 h (nM)
Give your result in nM as a bare value.

get_value(item= `CC1(C)CC[C@]2(C(=O)NCC(F)(F)F)CC[C@]3(C)[C@H](C(=O)C[C@@H]4[C@@]5(C)C=C(C#N)C(=O)C(C)(C)[C@@H]5CC[C@]43C)[C@@H]2C1` , readout=concentration at 3 h) returns 246

---

experiment: CNS and lung tissue concentrations after oral dosing in rats; format: in vivo; settings: both sexes, Sprague Dawley, rat, lung; SD rats, oral gavage, 150 mg/kg/day, day 15, 3 h post-dose; read-out: Mean dh404 Lung Tissue Concentration (nM) ± SEM
readout-label: concentration at 3 h (nM)
Report the value in nM with no unit label.

Lookup result for `CC1(C)CC[C@]2(C(=O)NCC(F)(F)F)CC[C@]3(C)[C@H](C(=O)C[C@@H]4[C@@]5(C)C=C(C#N)C(=O)C(C)(C)[C@@H]5CC[C@]43C)[C@@H]2C1` ; measured concentration at 3 h: 16900
